B1: OR4K15 (parent)
chain: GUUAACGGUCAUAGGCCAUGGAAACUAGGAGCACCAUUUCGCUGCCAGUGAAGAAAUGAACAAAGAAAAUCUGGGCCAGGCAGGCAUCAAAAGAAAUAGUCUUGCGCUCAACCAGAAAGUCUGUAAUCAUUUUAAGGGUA

# Variants of: B1
# protocol.notes: self-cleavage, relative activity (ratio to wild type); higher = more cleavage; in vitro, sequencing; the parent is a self-cleaving ribozyme
result.type: self-cleavage
Response field accepts a number only; no unit should be typed.

Look up and report measured self-cleavage for this entry: U19A U130C
0.95

Answer with reported self-cleavage of C32U
1.28

Kindly indicate its recorded self-cleavage. Item: A55C A59U
1.8

Output self-cleavage of G83U U102C
0.35

Let me know recorded self-cleavage for U9C A18C , thanks.
0.9

Others:
Supply measured self-cleavage of A30G C40A in your reply.
1.42

Report self-cleavage, nothing else, for this variant: A94G A117U
0.67

Name the recorded self-cleavage of the variant listed here: A66U U131C
0.84

In one line, give reported self-cleavage of the entry C40U U72A .
0.34

Please list self-cleavage recorded for the variant A47G A98G
0.3

Give me measured self-cleavage, please, for this variant: G14U A24G
1.23

// Input: C42G A47U . Output its self-cleavage only.
1.02

Please list self-cleavage recorded for the variant U38C C109A
0.51

Input A56U U130C , output reported self-cleavage.
0.34

These entries and their values trace back to the RNAGym collection of RNA variant scans (doi:10.7554/elife.90254).
